Assay text: Ratio of drug level in kidney medulla to plasma in Beagle dog at 0.5 mg/kg, iv administered as bolus dose by HPLC-based liquid scintillation counting analysis
Type: ADME, organism-based, Canis lupus familiaris
Parameters: dose 0.5 mg/kg, route intravenous
Assay readout: Kp
Quick one: just the number, no unit, thanks!

So for `N[14c]1[14cH][14cH][14c](OS(=O)(=O)O)[14cH][14c]1Cl` , the logged Kp turned out to be 0.2

###

Assay text: Unbound fraction in Crj:CD(SD)IGS rat plasma at 0.125 mg/hr, iv administered as continuous infusion by ultrafiltration method in presence of 62 mg/hr/kg probenecid
Format: ADME, organism-based
Study conditions: with probenecid 62 mg/hr/kg (co-administered)
Assay readout: fraction unbound
Quick one: just the number, no unit, thanks!

So for `N[14c]1[14cH][14cH][14c](OS(=O)(=O)O)[14cH][14c]1Cl` , the logged fraction unbound turned out to be 0.184

###

Tested on: Rattus norvegicus
Assay text: Intrinsic total body clearance in Crj:CD(SD)IGS rat at 0.125 mg/hr, iv administered as continuous infusion by HPLC based liquid scintillation counting analysis
Assay type: ADME, organism-based
Study conditions: in vivo
Assay readout: clearance
The reply should read as a number followed by its unit.

So for `N[14c]1[14cH][14cH][14c](OS(=O)(=O)O)[14cH][14c]1Cl` , the logged clearance turned out to be 130 mL/min/kg

###

Assay text: Apparent volume of distribution in Beagle dog at 0.5 mg/kg, iv administered as bolus dose by HPLC-based liquid scintillation counting analysis
Assay type: ADME, organism-based, Canis lupus familiaris
Set-up: dose 0.5 mg/kg, route intravenous
Study conditions: in vivo, read-out: Vd(app)
Assay readout: Vd (L/kg)
# value in L/kg; strip the unit string

So for `N[14c]1[14cH][14cH][14c](OS(=O)(=O)O)[14cH][14c]1Cl` , the logged Vd turned out to be 0.0989

###

Assay text: Apparent volume of distribution in Crj:CD(SD)IGS rat at 0.5 mg/kg, iv administered as bolus dose by HPLC-based liquid scintillation counting analysis
Type: ADME, organism-based
Design: dose 0.5 mg/kg, route intravenous
Study conditions: in vivo, read-out: Vd(app)
Assay readout: Vd (L/kg)
# value in L/kg; strip the unit string

So for `N[14c]1[14cH][14cH][14c](OS(=O)(=O)O)[14cH][14c]1Cl` , the logged Vd turned out to be 0.14

###

Assay text: In vitro plasma protein binding in rat at 0.5 ug/ml by ultrafiltration method
Format: ADME, cell-free
Study conditions: read-out: PPB (converted)
Assay readout: fraction unbound at 0.5 ug/ml
Quick one: just the number, no unit, thanks!

So for `N[14c]1[14cH][14cH][14c](OS(=O)(=O)O)[14cH][14c]1Cl` , the logged fraction unbound at 0.5 ug/ml turned out to be 0.075

###

Assay text: Unbound fraction in Crj:CD(SD)IGS rat plasma at 0.125 mg/hr, iv administered as continuous infusion by ultrafiltration method in presence of 31 mg/hr/kg probenecid
Type: ADME, organism-based
Study conditions: with probenecid 31 mg/hr/kg
Assay readout: fraction unbound
Quick one: just the number, no unit, thanks!

So for `N[14c]1[14cH][14cH][14c](OS(=O)(=O)O)[14cH][14c]1Cl` , the logged fraction unbound turned out to be 0.197
